# IC50 per entry
- Tested on: K562 cells
- Assay Comment: K562 cell proliferation assay (CellTiter-Glo)
- Format: cell-based
- Experimental Context: Homo sapiens, K562 cell viability, 72 hours, read-out: Cell Line (IC50, nM) K562
Structures can show the parent of a compound that is named as a salt.
Supply the numeric figure in nM, leaving out any unit text.

Sample answers from the record:
{"Compound": "[2H]C([2H])([2H])Oc1ncc(F)cc1-c1cc2cc(NC(=O)[C@@H]3C[C@@H]3F)ncc2n1C([2H])([2H])[2H]", "IC50 / nM": 166}
{"Compound": "COc1cc2[nH]ncc2cc1-c1cc2cc(NC(=O)[C@@H]3C[C@@H]3F)ncc2n1C", "IC50 / nM": 44.7}
{"Compound": "COc1ncnc(OC2CC2)c1-c1cc2cc(NC(=O)[C@@H]3C[C@@H]3F)ncc2n1C", "IC50 / nM": 16.5}
{"Compound": "COc1ccccc1-c1cc2cc(NC(=O)C3CC3)ncc2n1C", "IC50 / nM": 109}
{"Compound": "COc1ncnc(OC)c1-c1cc2cc(NC(=O)[C@@H]3C[C@@H]3F)ncc2n1C", "IC50 / nM": 33.6}
{"Compound": "COc1ncc(F)c(OC)c1-c1cc2cc(NC(=O)[C@@H]3C[C@H]3CN3CCN(C)CC3)ncc2n1C (single isomer, unassigned)", "IC50 / nM": 85.5}
{"Compound": "[2H]C([2H])([2H])n1c(-c2cccnc2OC)cc2cc(NC(=O)[C@@H]3C[C@@H]3F)ncc21", "IC50 / nM": 139}
{"Compound": "CCOc1nccc(C)c1-c1cc2cc(NC(=O)[C@@H]3C[C@@H]3F)ncc2n1C", "IC50 / nM": 257}

Query: Give its IC50 value. Item: CCc1ncnc(OC)c1-c1cc2cc(NC(=O)[C@@H]3C[C@@H]3F)ncc2n1C
Result: 227

Query: Give its IC50 value. Item: COc1ncc(F)cc1-c1cc2cc(NC(=O)[C@@H]3C[C@@H]3F)ncc2n1C
Result: 200

Query: Give its IC50 value. Item: [2H]C([2H])([2H])Oc1ncnc(OC([2H])([2H])[2H])c1-c1cc2cc(NC(=O)[C@@H]3C[C@@H]3F)ncc2n1C
Result: 47.8

Query: Give its IC50 value. Item: Cc1ccc(F)cc1-c1cc2cc(NC(=O)C3CC3)ncc2n1C
Result: 317

Query: Give its IC50 value. Item: [2H]C([2H])([2H])n1c(-c2cc(F)cnc2OC)cc2cc(NC(=O)[C@@H]3C[C@@H]3F)ncc21
Result: 217

Query: Give its IC50 value. Item: Cc1c(O)cccc1-c1cc2cc(NC(=O)C3CC3)ncc2n1C
Result: 37.8

Query: Give its IC50 value. Item: COc1ccnc(OC)c1-c1cc2cc(NC(=O)[C@@H]3C[C@@H]3F)ncc2n1C
Result: 11.6

Query: Give its IC50 value. Item: CCOc1ncccc1-c1cc2cc(NC(=O)[C@@H]3C[C@@H]3F)ncc2n1C
Result: 105

Query: Give its IC50 value. Item: COc1ccccc1-c1cc2cc(NC(=O)NCCN3CCN(C)CC3)ncc2n1C
Result: 329

Query: Give its IC50 value. Item: CNc1nc(OC)c(-c2cc3cc(NC(=O)[C@@H]4C[C@@H]4F)ncc3n2C)c(OC)n1
Result: 60.9

Query: Give its IC50 value. Item: COc1ccnc(OC)c1-c1cc2cc(NC(=O)[C@H]3C[C@H]3F)ncc2n1C
Result: 91.5

Query: Give its IC50 value. Item: COc1ncnc(OC)c1-c1cc2cc(NC(=O)[C@H]3C[C@H]3F)ncc2n1C
Result: 79.4

Query: Give its IC50 value. Item: COc1cc2[nH]cnc2cc1-c1cc2cc(NC(=O)[C@@H]3C[C@@H]3F)ncc2n1C [Compound 28, formate]
Result: 30.4

Query: Give its IC50 value. Item: [2H]C([2H])([2H])Oc1ncnc(OC([2H])([2H])[2H])c1-c1cc2cc(NC(=O)[C@@H]3C[C@@H]3F)ncc2n1C([2H])([2H])[2H]
Result: 23

Query: Give its IC50 value. Item: CCOc1ncc(F)cc1-c1cc2cc(NC(=O)[C@@H]3C[C@@H]3F)ncc2n1C
Result: 289

Query: Give its IC50 value. Item: Cn1c(-c2cnccc2OC2CC2)cc2cc(NC(=O)[C@@H]3C[C@@H]3F)ncc21
Result: 256

Query: Give its IC50 value. Item: COc1ccccc1-c1c(C)c2cnc(NC(=O)[C@H]3C[C@H]3F)cc2n1C
Result: 90.9

Query: Give its IC50 value. Item: COc1ncccc1-c1c(C)c2cnc(NC(=O)[C@@H]3C[C@@H]3F)cc2n1C
Result: 240

Query: Give its IC50 value. Item: COc1cccc(C)c1-c1cc2cc(NC(=O)[C@@H]3C[C@@H]3F)ncc2n1C
Result: 91.7

Query: Give its IC50 value. Item: COc1cccc(F)c1-c1cc2cc(NC(=O)[C@@H]3C[C@@H]3F)ncc2n1C
Result: 112

Query: Give its IC50 value. Item: COc1ncccc1-c1cc2cc(NC(=O)[C@H]3C[C@H]3F)ncc2n1C
Result: 208

Query: Give its IC50 value. Item: COc1nc(C)ncc1-c1cc2cc(NC(=O)[C@@H]3C[C@@H]3F)ncc2n1C
Result: 381
